assay.target: LNX1_2, Q8TBB1
Sequence (Q8TBB1 371-470): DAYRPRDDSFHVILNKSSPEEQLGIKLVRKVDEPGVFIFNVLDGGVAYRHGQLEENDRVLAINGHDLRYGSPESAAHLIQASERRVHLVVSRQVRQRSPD
test.method.notes: holdup assay
Design: key: below the threshold = too weak to quantify, mostly under pKd 3.1 to 4
condition.parameters: plain residues with an end cap or a label only (N-terminal biotin on a linker: ado-ado)
readout: pKd

A selection of reference data follows.
                          binder   experimental_value
0     VDSTVKVWTC [TRAF7, Q6Q0C0]                  5.3
1    EALLQMESVA [CAVIN3, Q969G5]  below the threshold
2    LPHGHSTTRV [NLGN4X, Q8N0W4]                 3.54
3    PLSPEQPTKL [TRIM50, Q86XT4]  below the threshold
4  TSQESEDTYL [TBC1D10A, Q9BXI6]  below the threshold
5      QKNRKAQEDL [CES3, Q6UWW8]  below the threshold

Data request: Give recorded pKd. KKAPTNEFYA [SDC4, P31431]
Data returned: below the threshold

Data request: Name the recorded pKd of the binder listed here: QSLNRMEYIV [JAG1, P78504]
Data returned: 4.51
